# Test system: CCRF-CEM leukemia
# methodNotes: NCI tumour cell line growth inhibition, 48 h
A collection of compounds and their measured TGI

{"compound": "CN(C)C(=O)c1nnsc1NN=O", "studySystem": "CCRF-CEM leukemia", "TGI": "> 100 µM"}
{"compound": "CCOC(=O)[C@H](Cc1ccccc1)NC(=O)c1nc[nH]c1[N+](=O)[O-]", "studySystem": "CCRF-CEM leukemia", "TGI": "> 100 µM"}
{"compound": "CCOC(=O)C(=CNC(Cc1c[nH]c2ccccc12)C(=O)OC)C(=O)OCC (stereo not given)", "studySystem": "CCRF-CEM leukemia", "TGI": "> 100 µM"}
{"compound": "COc1ccc2cc(-c3ccc(OC)c(OC)c3)c(=O)oc2c1", "studySystem": "CCRF-CEM leukemia", "TGI": "> 100 µM"}
{"compound": "CNC(=O)c1cc(Oc2ccc3nc(NC(=O)c4cc(C(F)(F)F)cc(C(F)(F)F)c4)sc3c2)ccn1", "studySystem": "CCRF-CEM leukemia", "TGI": "> 100 µM"}
{"compound": "Nc1ccccc1C#Cc1ccccc1C#Cc1ccccc1N", "studySystem": "CCRF-CEM leukemia", "TGI": "16.2 µM"}
{"compound": "COc1ccc(Nc2nc(NCc3ccccc3)c3ccccc3n2)cc1", "studySystem": "CCRF-CEM leukemia", "TGI": "9.19 µM"}
{"compound": "Clc1ccc(N/N=C/c2ccccn2)nc1", "studySystem": "CCRF-CEM leukemia", "TGI": "> 100 µM"}
{"compound": "Cc1c(NC(=O)CCCl)c(=O)oc2c(C)c3occc(=O)c3cc12", "studySystem": "CCRF-CEM leukemia", "TGI": "> 100 µM"}
{"compound": "O=S(=O)(c1ccc2c(c1)C(=NO)c1cc(S(=O)(=O)N3CCCCC3)ccc1-2)N1CCCCC1", "studySystem": "CCRF-CEM leukemia", "TGI": "0.338 µM"}

* * *

# Tested on: COLO 205 colon
# methodNotes: NCI tumour cell line growth inhibition, 48 h

{"compound": "CC(C)c1ccc2c(c1)[C@@]1(C)CC[C@H](C)C(C)(C)C1CC2 (stereo not given in full)", "studySystem": "COLO 205 colon", "unitsSymbol": "µM", "measurementQualifier": "=", "TGI": 42.1}
{"compound": "C/C(=C/CNc1ncnc2c1ncn2CCC(=O)O)CO", "studySystem": "COLO 205 colon", "unitsSymbol": "µM", "measurementQualifier": ">", "TGI": 100}
{"compound": "CSc1c(C#N)c(O)n(-c2ccc(Cl)cc2)c(=O)c1C#N", "studySystem": "COLO 205 colon", "unitsSymbol": "µM", "measurementQualifier": ">", "TGI": 100}
{"compound": "C/C(=N\\N=C(\\N)OB(F)F)c1ccccn1", "studySystem": "COLO 205 colon", "unitsSymbol": "µM", "measurementQualifier": ">", "TGI": 100}
{"compound": "Nc1cccc(-c2nc3sccn3c2-c2ccnc(NCCCNS(=O)(=O)c3ccc(C(F)(F)F)cc3)n2)c1", "studySystem": "COLO 205 colon", "unitsSymbol": "µM", "measurementQualifier": "=", "TGI": 13.1}
{"compound": "COc1ccccc1/C=C1\\CCC(CN(C)C)C1=O (stereo not given)", "studySystem": "COLO 205 colon", "unitsSymbol": "µM", "measurementQualifier": "=", "TGI": 8.38}
{"compound": "CCS(=O)(=O)c1ccc(OC)c(Nc2ncc(-c3cccc(-c4ccccc4F)c3)o2)c1", "studySystem": "COLO 205 colon", "unitsSymbol": "µM", "measurementQualifier": ">", "TGI": 25}
{"compound": "CCOC(=O)c1c(NS(=O)(=O)c2ccc(Br)cc2)sc2c1CCCC2", "studySystem": "COLO 205 colon", "unitsSymbol": "µM", "measurementQualifier": "=", "TGI": 32.1}
{"compound": "COc1ccc(S(=O)(=O)Nc2cc(/C=C\\c3cc(OC)c(OC)c(OC)c3)cc(OC)c2OC)cc1OC", "studySystem": "COLO 205 colon", "unitsSymbol": "µM", "measurementQualifier": ">", "TGI": 100}
{"compound": "CNC(=O)c1cc(Oc2ccc3nc(NC(=O)c4cc(C(F)(F)F)cc(C(F)(F)F)c4)sc3c2)ccn1", "studySystem": "COLO 205 colon", "unitsSymbol": "µM", "measurementQualifier": "=", "TGI": 8.21}
{"compound": "O=P(O)(O)OP(=O)(O)O", "studySystem": "COLO 205 colon", "unitsSymbol": "µM", "measurementQualifier": ">", "TGI": 100}
{"compound": "O=C(O)C(F)(OC(F)(F)C(F)(F)C(F)(F)F)C(F)(F)F (stereo not given)", "studySystem": "COLO 205 colon", "unitsSymbol": "µM", "measurementQualifier": ">", "TGI": 100}
{"compound": "CC(C)=CCC/C(C)=C/CC/C(C)=C/[C@@H]1[C@@H](CO)[C@]1(C)CC/C=C(\\C)CCC=C(C)C", "studySystem": "COLO 205 colon", "unitsSymbol": "µM", "measurementQualifier": ">", "TGI": 100}
{"compound": "Nc1cc(OCc2ccccc2)c(OCc2ccccc2)cc1C=O", "studySystem": "COLO 205 colon", "unitsSymbol": "µM", "measurementQualifier": "=", "TGI": 77.3}
{"compound": "COc1ccc2cc(-c3ccc(OC)c(OC)c3)c(=O)oc2c1", "studySystem": "COLO 205 colon", "unitsSymbol": "µM", "measurementQualifier": ">", "TGI": 100}
